Entries annotated with measured protein stability index
B1: RIT1 (parent)
chain: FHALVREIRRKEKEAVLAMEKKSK

Variants of: B1
Protocol summary: protein stability index of a GFP-peptide fusion (GPS, HEK-293T) (PSI 1-6); higher = more stable;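 note: lentivirally expressed fusions sorted by FACS into six bins by GFP to DsRed ratio, PSI derived from sequencing read proportions per bin multiplied by bin number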
Experimental setup: c terminus: a fixed tail appended

{"columns": ["Mutation name", "protein stability index"],
 "data": [
  ["E12Q", 1.89],
  ["H2I", 2.04],
  ["K21M", 1.28],
  ["L17K", 1.97],
  ["A15Y", 2.12],
  ["E20I", 1.94],
  ["H2M", 2],
  ["K22E", 1.87],
  ["E7K", 1.36],
  ["A15E", 1.58],
  ["R10L", 1.55],
  ["E7Q", 1.32],
  ["A18Q", 1.95],
  ["H2D", 3.76],
  ["L4K", 2.99],
  ["R10F", 4.17],
  ["E7N", 2.44],
  ["L4N", 2.65],
  ["A18R", 2.11],
  ["K21I", 1.41],
  ["K22I", 1.71],
  ["K13G", 1.37],
  ["K24L", 1.99],
  ["K21A", 1.9],
  ["K22G", 1.83],
  ["K24Q", 1.23],
  ["L4Q", 2.08],
  ["E20Q", 1.65],
  ["M19S", 1.79],
  ["E14A", 2.29],
  ["V5T", 1.98],
  ["S23P", 1.37],
  ["A15G", 1.91],
  ["K11P", 2.46],
  ["E14Y", 2.17],
  ["K24E", 1.95],
  ["H2R", 3.02],
  ["H2A", 2.64],
  ["L4G", 2.52],
  ["M19H", 1.35],
  ["A3T", 2.28],
  ["K11D", 1.39],
  ["V16Q", 2.22],
  ["K13Y", 1.81],
  ["S23Q", 2.22],
  ["A3I", 2.12]
]}
